Details: buffer; pH 7.4; 200.0 µM
Measured solubility kinetic values are reported for all entries that follow.

> print(dat)
                                   compound  result.value
1    O=C(CN1CCN(Cc2ccc(F)cc2)CC1)NCc1ccccc1  > 51.2 µg/mL
2  COc1ccc(-c2nc3cc([N+](=O)[O-])ccc3o2)cc1OC   < 0.3 µg/mL
3        C=CCNc1nc(C(=O)OCC(=O)c2ccccc2)cs1     4.5 µg/mL
4  O=C(Nc1ccc(F)cc1)NC1CCN(Cc2c(F)cccc2Cl)CC1     2.8 µg/mL
5   O=C(CN1CCN(Cc2ccccc2)CC1)N/N=C/c1cccnc1  > 50.6 µg/mL
6  CC(C)C(OC(=O)c1ccco1)C(=O)NC1CCCC1 (centres undefined)  > 41.9 µg/mL

q: Requested field: solubility kinetic. Item: O=C(OCc1nc2ccsc2c(=O)[nH]1)c1ccccc1
a: > 42.9 µg/mL

q: Same lookup for COc1ccc(CCNC(=O)CN(C)S(=O)(=O)c2ccc(OC)cc2)cc1 , please.
a: > 58.9 µg/mL

q: Same lookup for O=C(NCCNc1ccc([N+](=O)[O-])cc1)c1cc(F)c(F)cc1Cl , please.
a: 2 µg/mL

====

Settings: buffer; pH 7.4; 200.0 µM
ATTRIBUTE_MEASURED: solubility kinetic (µg/mL)
# output: bare number, implied unit µg/mL

Would you please look over these solved cases?
> print(dat)
                                   compound  result.value
1   O=C(COC(=O)c1cccc(F)c1)NC(=O)NCc1ccccc1           2.4
2  N=c1c2c(ncn1CCCO)Oc1cc(O)ccc1C2c1ccccc1 (stereo unspecified)          35.3

// below: solubility kinetic requested for another compound
q: Requested field: solubility kinetic. Item: O=C(CCSCc1cccc(F)c1)NCCc1ccccc1
a: 18.4

====

Measured solubility kinetic values are reported for all entries that follow.
Conditions: buffer; pH 7.4; 200.0 µM
# output: bare number, implied unit µg/mL

Would you please look over these solved cases?
> print(dat)
                                   compound  endpoint.unit  result.value
1  CC(Oc1ccccc1)C(=O)N1CCN=C1SCc1ccccc1F (stereo unspecified)          µg/mL          11.4
2  CCOCCOc1cccc(C(=O)NC(c2ccccc2)C(C)C)c1 (stereo unspecified)          µg/mL           6.2

// below: solubility kinetic requested for another compound
q: Requested field: solubility kinetic. Item: CC(=O)c1c[nH]c(C(=O)NCc2cccc(C(F)(F)F)c2)c1
a: 2.2

====

Measured solubility kinetic values are reported for all entries that follow.
Conditions: buffer; pH 7.4; 200.0 µM

> print(dat)
                                   compound  attribute.measured  result.value
1  Cc1ccc(S(=O)(=O)N2CCCCC2)cc1NC(=O)c1ccccc1Cl  solubility kinetic    23.2 µg/mL
2           Cc1ccc(S(=O)(=O)Nc2ccsc2C#N)cc1  solubility kinetic  > 41.8 µg/mL
3  CC1(C)OC(C)(C)/C(=C\c2ccc(OCC(N)=O)cc2)C1=O  solubility kinetic      28 µg/mL
4  Cc1cc(/C=C2\SC(=O)NC2=O)c(C)n1-c1ccc(N(C)C)cc1  solubility kinetic   < 0.2 µg/mL
5  Nc1nc(Cl)nc2c1ncn2[C@@H]1O[C@H](CO)[C@@H](O)[C@H]1O  solubility kinetic  > 45.3 µg/mL

// below: solubility kinetic requested for another compound
q: Requested field: solubility kinetic. Item: COc1ccc(CC(=O)OCN2C(=O)c3ccccc3C2=O)cc1OC
a: > 53.3 µg/mL

====

Details: buffer; pH 7.4; 200.0 µM
Measured solubility kinetic values are reported for all entries that follow.
# output: bare number, implied unit µg/mL

Would you please look over these solved cases?
> print(dat)
                                   molecule  attribute.measured  result.value
1       Cc1ccnc(NC(=O)Cn2c(=O)oc3ccccc32)c1  solubility kinetic          10.9
2              O=C1c2ccsc2SCCN1Cc1cccc(F)c1  solubility kinetic          42.6
3  COc1ccc(C2CC(=O)C=C(NCc3ccccc3)C2)cc1 (configuration not stated)  solubility kinetic          14.2
4             Clc1ccccc1-c1nc(-c2ccncc2)no1  solubility kinetic             7
5        C=CCOc1ccc(/C=C2\SC(N)=NC2=O)cc1OC  solubility kinetic           5.7
6  CC(C)[C@H](NS(=O)(=O)c1ccccc1)C(=O)OCC(=O)Nc1cccc(S(N)(=O)=O)c1  solubility kinetic          61.6
7        S=C(Nc1ccccc1Cl)N1CCN(c2ccccn2)CC1  solubility kinetic           2.3
8  CC(=O)c1cccc(NC(=O)CN2C(=O)c3ccccc3C2=O)c1  solubility kinetic          13.9

q: Requested field: solubility kinetic. Item: CCc1nonc1NC(=O)c1oc2cc(C)c(C)cc2c1C
a: 0.3

q: Same lookup for Cc1c(C(=O)C(=O)N2c3ccccc3CC2C)c2ccccc2n1C (configuration not stated) , please.
a: 1.6

====

Settings: buffer; pH 7.4; 200.0 µM
Measured solubility kinetic values are reported for all entries that follow.

> print(dat)
                              compound  result.value
1  CCc1c(C)nc(SC/C=C/c2ccccc2)[nH]c1=O     1.4 µg/mL

// below: solubility kinetic requested for another compound
q: Requested field: solubility kinetic. Item: Cn1c(=O)c2nc(-c3ccccc3)c(-c3ccccc3)nc2n(C)c1=O
a: 0.9 µg/mL

====

Measured solubility kinetic values are reported for all entries that follow.
Settings: buffer; pH 7.4; 200.0 µM

Would you please look over these solved cases?
> print(dat)
                                   compound  attribute.measured  result.value
1       COc1ccc(Nc2nccc(-c3cccc(N)c3)n2)cc1  solubility kinetic    22.5 µg/mL
2  CC(=O)N1CCN(c2cc(N3CCCC3)c(F)cc2[N+](=O)[O-])CC1  solubility kinetic  > 50.5 µg/mL
3      CCCC(=O)Nc1ccc(C(=O)COC(=O)C2CC2)cc1  solubility kinetic    15.3 µg/mL
4         CC(=O)c1cn(N2CCCCC2)c(=O)[nH]c1=O  solubility kinetic  > 35.6 µg/mL
5          O=C(CCNC(=O)c1ccccc1)NCc1ccccc1F  solubility kinetic    > 45 µg/mL

// below: solubility kinetic requested for another molecule
q: Requested field: solubility kinetic. Item: S=C(NCc1ccccc1)Nc1cccc2cnccc12
a: > 44 µg/mL

====

Details: buffer; pH 7.4; 200.0 µM
ATTRIBUTE_MEASURED: log10(solubility kinetic) (log10 of the value in µg/mL)
On a log10 scale: recorded solubility kinetic, unit µg/mL.

> print(dat)
                                   molecule         attribute.measured  result.value
1  Cl.NC(Cc1ccccc1)c1nc2ccccc2[nH]1 (configuration not stated)  log10(solubility kinetic)          1.61
2           Cc1cccc2sc(NC(=O)CCn3cccc3)nc12  log10(solubility kinetic)          0.76
3  COc1ccc(CCC(=O)OCC(=O)NC(=O)c2ccc(Cl)cc2)cc1  log10(solubility kinetic)          0.86
4  CC1CCCC(C)N1C(=O)COC(=O)/C=C/c1ccco1 (configuration not stated)  log10(solubility kinetic)          1.00

q: Requested field: log10(solubility kinetic). Item: CC(C)c1ccc(NC(=O)CSc2nc3ncccc3[nH]2)cc1
a: 0.51

q: Same lookup for Cc1ccc(N2CCN(c3ccc([N+](=O)[O-])cn3)CC2)c(C)c1 , please.
a: -0.52

====

Conditions: buffer; pH 7.4; 200.0 µM
ATTRIBUTE_MEASURED: solubility kinetic (µg/mL)
# output: bare number, implied unit µg/mL

> print(dat)
                                    compound  result.value
 1  NC(=O)NC(=O)C(Nc1ccc2c(c1)CCC2)c1ccccc1 (centres undefined)           7.9
 2  O=C(CNS(=O)(=O)c1ccc(Br)cc1)N1CCN(Cc2ccccc2)CC1           7.2
 3  O=C1CC(Sc2ccc(Cl)cc2)C(=O)N1c1ccc2c(c1)OCCO2 (centres undefined)            13
 4    N#CCCN(Cc1ccccc1)C(=O)Nc1ccc2c(c1)CCO2          21.7
 5      CC(C)(C)C(=O)O/N=C(\N)COc1cccc(Cl)c1          25.4
 6  O=C(N/C(=C\c1ccco1)C(=O)N1CCCC1)c1ccccc1          41.6
 7      O=C(Nc1sc2c(c1C(=O)O)CCC2)c1ccccc1Cl          41.1
 8  CC(C)COc1ccc(C(=O)N2C(=O)c3ccc(N)cc3C2=O)cc1           1.8
 9                    O=C1NCCN1Cc1ccc(Cl)cc1          26.3
10  COc1ccc(CNC(=O)CC23CC4CC(CC(C4)C2)C3)cc1           1.6

// below: solubility kinetic requested for another compound
q: Requested field: solubility kinetic. Item: O=c1c2cc(F)ccc2[nH]c(=S)n1Cc1ccc(F)cc1
a: 0.9
